The measured values listed here are drawn from ChEMBL document CHEMBL3272084.

Experiment: Acute toxicity in ip dosed albino CFW mouse assessed as mortality measured over 48 hrs
Type: organism-based
Settings: albino CFW, in vivo
Assay Readout: LD50 at 48 h (µmol/kg)

| Compound | Endpoint Unit | Measured |
| --- | --- | --- |
| CNCC12CC3CC(CC(C3)C1Cl)C2.Cl (configuration not stated) | µmol/kg | 600 |
| Cl.NC1CC2CC3CC(C2)C1C3 (configuration not stated) | µmol/kg | 800 |
| CNCCC12CC3CC(CC(C3)C1Cl)C2.Cl (configuration not stated) | µmol/kg | 600 |
| Cl.OCCNC1CC2CC3CC(C2)C1C3 (configuration not stated) | µmol/kg | 600 |
| Br.CN1CCN(CC23CC4CC(CC(C4)C2Br)C3)CC1 (configuration not stated) | µmol/kg | 600 |
| CNCC12CC3CC(CC(C3)C1Br)C2.Cl (configuration not stated) | µmol/kg | 1000 |
| CNCC1CC2CC3CC(C2)C1C3.O=C(O)/C=C\C(=O)O (configuration not stated) | µmol/kg | 500 |
